# test.protocol: self-splicing fitness, log relative to wild type (ln ratio); higher = more splicing; Tetrahymena group I intron in knt gene, E. coli kanamycin selection, DiMSum; sequences stand for … in CUCUCU…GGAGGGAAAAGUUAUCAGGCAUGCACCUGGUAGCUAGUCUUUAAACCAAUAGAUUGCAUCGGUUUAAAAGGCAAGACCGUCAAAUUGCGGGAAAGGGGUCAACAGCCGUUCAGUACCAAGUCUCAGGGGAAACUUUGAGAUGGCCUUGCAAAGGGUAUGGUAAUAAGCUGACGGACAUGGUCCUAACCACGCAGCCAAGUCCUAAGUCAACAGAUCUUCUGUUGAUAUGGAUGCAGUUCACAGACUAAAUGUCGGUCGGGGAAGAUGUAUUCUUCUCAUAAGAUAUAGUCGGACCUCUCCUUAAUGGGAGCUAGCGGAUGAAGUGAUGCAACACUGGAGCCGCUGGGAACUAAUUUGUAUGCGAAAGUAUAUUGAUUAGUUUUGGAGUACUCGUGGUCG;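 note: selection with 25 µg/mL kanamycin versus none on LB agar overnight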
# settings: 30 °C
Could you label it True if measured self-splicing fitness (ln) is -3 or higher, and False otherwise?

{"polymer.sequence": "GCCUAGCAAUAUUACGUGAC", "label": "True"}
{"polymer.sequence": "AAUUAGCAAUAUUACGACCG", "label": "True"}
{"polymer.sequence": "GUAGAGCAAUAUUACGCGAA", "label": "True"}
{"polymer.sequence": "UAACAGCAAUAUUACGUUAU", "label": "False"}
{"polymer.sequence": "ACCGAGCAAUAUUACGUAUA", "label": "False"}
{"polymer.sequence": "UUAUAGCAAUAUUACGGGGC", "label": "True"}
{"polymer.sequence": "GCGAAGCAAUAUUACGAUUC", "label": "True"}
{"polymer.sequence": "CUUGAGCAAUAUUACGCAUC", "label": "False"}
{"polymer.sequence": "CAGUAGCAAUAUUACGCAGA", "label": "True"}
{"polymer.sequence": "CCUUAGCAAUAUUACGGCCG", "label": "True"}
{"polymer.sequence": "UUCAAGCAAUAUUACGGACU", "label": "True"}
{"polymer.sequence": "GCAAAGCAAUAUUACGAUUC", "label": "True"}
{"polymer.sequence": "GGAGAGCAAUAUUACGUAAC", "label": "True"}
{"polymer.sequence": "GCUAAGCAAUAUUACGAUGG", "label": "True"}
{"polymer.sequence": "CUACAGCAAUAUUACGCAAU", "label": "False"}
{"polymer.sequence": "CCAUAGCAAUAUUACGCACU", "label": "False"}
{"polymer.sequence": "AGCGAGCAAUAUUACGCGUG", "label": "True"}
{"polymer.sequence": "UGGGAGCAAUAUUACGGAUG", "label": "False"}
{"polymer.sequence": "GGAAAGCAAUAUUACGGGGC", "label": "False"}
{"polymer.sequence": "AUUUAGCAAUAUUACGGGUG", "label": "False"}
